Molecular target: human factor VIIa and TF (Homo sapiens, UniProt P08709)
Sequence (P08709 213-466 limits assumed): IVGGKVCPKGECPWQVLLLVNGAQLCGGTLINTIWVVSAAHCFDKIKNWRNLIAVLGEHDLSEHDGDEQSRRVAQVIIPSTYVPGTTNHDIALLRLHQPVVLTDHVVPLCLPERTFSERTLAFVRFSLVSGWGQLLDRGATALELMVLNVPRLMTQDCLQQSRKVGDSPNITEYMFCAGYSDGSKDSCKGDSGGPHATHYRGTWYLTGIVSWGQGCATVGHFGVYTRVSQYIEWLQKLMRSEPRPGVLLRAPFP
Sequence (P08709 61-212 limits assumed): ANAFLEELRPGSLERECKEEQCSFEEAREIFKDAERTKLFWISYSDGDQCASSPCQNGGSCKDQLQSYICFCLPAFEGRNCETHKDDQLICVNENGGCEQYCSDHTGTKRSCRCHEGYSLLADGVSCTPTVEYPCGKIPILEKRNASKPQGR
Sequence (P13726 33-295 partner): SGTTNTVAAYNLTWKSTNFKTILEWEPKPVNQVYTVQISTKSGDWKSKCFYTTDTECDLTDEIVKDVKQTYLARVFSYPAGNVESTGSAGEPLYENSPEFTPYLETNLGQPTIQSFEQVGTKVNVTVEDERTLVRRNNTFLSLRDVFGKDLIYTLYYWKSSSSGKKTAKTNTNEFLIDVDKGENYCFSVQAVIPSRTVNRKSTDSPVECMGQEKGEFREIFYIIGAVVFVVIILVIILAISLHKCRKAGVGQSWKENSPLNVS
Starred links: 1 amine or outer side, 2 acyl side, 3 side chain; linkers in the order of their positions; H or OH if unused. Non-standard residues stand in square brackets, D forms with d. Residues, ends and D or L forms follow the SMILES beside them. *: point of attachment. Phe(4-amidino) = N=C(N)c1ccc(C[C@H](N)C(=O)O)cc1; Cha = N[C@@H](CC1CCCCC1)C(=O)O; CO = O=C([*:1])[*:2]; Alloc = C=CCOC(=O)*; Bn = c1ccc(C*)cc1; NHAllyl = C=CCN*
Label key: Met means Ki under 0.04 µM; Not met means Ki of 0.04 µM or more.

compound="C=CCNC(=O)N[C@@H](Cc1ccc(C(=N)N)cc1)C(=O)N[C@@H](CCC(=O)O)C(=O)N[C@@H](CCCNC(=N)N)C(=O)N[C@@H](CC1CCCCC1)C(N)=O [allyl-NH--C(O)-pAph-Glu-Arg-Cha-NH2] ({NHAllyl-CO}-[Phe(4-amidino)]ER[Cha]-NH2)" class_name="Not met"
compound="C=CCOC(=O)N[C@@H](Cc1ccc(C(=N)N)cc1)C(=O)N[C@@H](CCC(=O)O)C(=O)N[C@@H](CC(N)=O)C(=O)NC1CCCc2ccccc21 (some centres unmarked)" class_name="Not met"
compound="C=CCOC(=O)N[C@@H](Cc1ccc(C(=N)N)cc1)C(=O)N[C@@H](CCC(=O)O)C(=O)N[C@@H](Cc1c[nH]cn1)C(=O)N[C@@H](CC1CCCCC1)C(N)=O [Alloc--pAph--Glu--His--Cha--NH2] (Alloc-[Phe(4-amidino)]EH[Cha]-NH2)" class_name="Not met"
compound="C=CCOC(=O)N[C@@H](Cc1ccc(C(=N)N)cc1)C(=O)N[C@@H](CCC(=O)O)C(=O)N[C@@H](CC(N)=O)C(=O)NC(C)c1cccc2ccccc12 (some centres unmarked)" class_name=Met
compound="C=CCOC(=O)N[C@@H](Cc1ccc(C(=N)N)cc1)C(=O)N[C@@H](CCC(=O)O)C(=O)N[C@@H](CSCc1ccccc1)C(=O)N[C@@H](CC1CCCCC1)C(N)=O [Alloc--pAph--Glu--Cys(Bzl)--Cha--NH2] (Alloc-[Phe(4-amidino)]EC(Bn)[Cha]-NH2)" class_name=Met
